tested-on: Full-length human PKCθ (Homo sapiens)
Construct: Full-length human PKCθ (Carna Biosciences, final 31 ng/mL); purchased Carna Biosciences
Sequence (Q04759 whole entry): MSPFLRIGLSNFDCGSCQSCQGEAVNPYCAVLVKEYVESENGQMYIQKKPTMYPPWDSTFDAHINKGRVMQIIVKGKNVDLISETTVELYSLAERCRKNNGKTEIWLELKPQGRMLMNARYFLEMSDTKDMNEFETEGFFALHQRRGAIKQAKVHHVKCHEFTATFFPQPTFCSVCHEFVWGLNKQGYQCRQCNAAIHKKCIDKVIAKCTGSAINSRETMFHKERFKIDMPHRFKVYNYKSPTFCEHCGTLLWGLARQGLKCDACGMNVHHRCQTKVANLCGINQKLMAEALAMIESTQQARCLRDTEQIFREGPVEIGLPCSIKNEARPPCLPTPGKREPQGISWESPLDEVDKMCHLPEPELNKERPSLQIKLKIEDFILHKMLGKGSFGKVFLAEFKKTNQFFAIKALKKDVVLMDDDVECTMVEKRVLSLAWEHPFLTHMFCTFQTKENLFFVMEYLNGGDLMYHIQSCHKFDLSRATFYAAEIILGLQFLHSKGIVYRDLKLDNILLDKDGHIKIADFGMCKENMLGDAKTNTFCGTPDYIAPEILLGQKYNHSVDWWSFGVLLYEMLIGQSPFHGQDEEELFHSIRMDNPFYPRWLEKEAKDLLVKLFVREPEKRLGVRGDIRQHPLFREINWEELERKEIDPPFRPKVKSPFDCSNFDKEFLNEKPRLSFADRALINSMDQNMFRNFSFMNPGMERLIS
assay-protocol: Measurement of human PKCθ enzyme inhibition activity (HTRF KinEASE S1 kit)
Type: biochemical
measurement-setup: full-length human PKCθ, ATP 30 μM, HTRF; read-out: IC50 (nM), human PKCθ enzyme inhibition
assay-endpoint: IC50 (nM)

- N#Cc1cnc(NCc2ccccc2OC(F)(F)F)nc1NC[C@]12CC3C[C@H](C1)[C@H](N[C@H]1CC[C@H](O)CC1)[C@@H](C3)C2 (relative stereo) [Example 41]: 14

I. N#Cc1cnc(NCc2ccccc2OC(F)(F)F)nc1NC[C@]12CC3C[C@H](C1)[C@@H](NCc1cccnc1)[C@@H](C3)C2 (relative stereo) [Example 76]
II. COc1ccccc1CNc1ncc(C#N)c(NC[C@]23CC4C[C@H](C2)[C@@H](N(C)CCCCO)[C@@H](C4)C3)n1 [Example 107]
Ask: Short answer wanted: higher IC50, I or II ? Write down the label attached to your selection.
Reply: II

* * *

tested-on: Cytochrome P450 (CYP3A4) (Homo sapiens)
Construct: human liver microsome (0.1 mg protein/mL); from tissue; host or cells: human liver microsomes
assay-protocol: Measurement of cytochrome P450 (CYP3A4) enzyme inhibition activity in human liver microsome (inhibition tests I and II, midazolam substrate)
Type: in vitro ADME
measurement-setup: inhibition test I: 5 μM test compound, 2 μM midazolam, human liver microsome, 37° C. 20 minutes, no preincubation
assay-endpoint: I (%) Remaining Rate I

* CCN1CCC(N[C@@H]2[C@@H]3CC4C[C@H]2C[C@@](CNc2nc(NCc5ccccc5Cl)ncc2C#N)(C4)C3)CC1 [Example 249] | 82
* N#Cc1cnc(NCc2ccccc2Cl)nc1NC[C@]12CC3C[C@H](C1)[C@@H](N[C@H]1CC[C@@H](NCCO)CC1)[C@@H](C3)C2 (relative stereo) [Example 220] | 82
* C[C@]1(O)CC[C@H](CN[C@@H]2[C@@H]3CC4C[C@H]2C[C@@](CNc2nc(NCc5ccccc5OC(F)F)ncc2C#N)(C4)C3)CC1 (relative stereo) [Example 372] | 78
* CNC1CCC(N[C@@H]2[C@@H]3CC4C[C@H]2C[C@@](CNc2nc(NCc5ccccc5Cl)ncc2C#N)(C4)C3)CC1 (relative stereo) [Example 316] | 85
* N#Cc1cnc(NCc2ccccc2Cl)nc1NC[C@]12CC3C[C@H](C1)[C@@H](NCC1CCN(CCF)CC1)[C@@H](C3)C2 [Example 219] | 76
* CSc1ccccc1CNc1ncc(C#N)c(NC[C@]23CC4C[C@H](C2)[C@@H](NCC[C@H](O)CO)[C@@H](C4)C3)n1 (relative stereo) [Example 200] | 95
* N#Cc1cnc(NCc2ccccc2Cl)nc1NC[C@]12CC3C[C@H](C1)[C@@H](NC1CCC(O)CC1)[C@@H](C3)C2 (some centres unmarked) [Example 95] | 84
* CC(=O)N1CCC(N[C@H]2CC[C@@H](N[C@@H]3[C@@H]4CC5C[C@H]3C[C@@](CNc3nc(NCc6ccccc6Cl)ncc3C#N)(C5)C4)CC2)CC1 (relative stereo) [Example 281] | 89

* * *

tested-on: Cytochrome P450 (CYP3A4) (Homo sapiens, UniProt P08684)
Construct: human liver microsome (0.1 mg protein/mL); from tissue; host or cells: human liver microsomes
Sequence (P08684 whole entry): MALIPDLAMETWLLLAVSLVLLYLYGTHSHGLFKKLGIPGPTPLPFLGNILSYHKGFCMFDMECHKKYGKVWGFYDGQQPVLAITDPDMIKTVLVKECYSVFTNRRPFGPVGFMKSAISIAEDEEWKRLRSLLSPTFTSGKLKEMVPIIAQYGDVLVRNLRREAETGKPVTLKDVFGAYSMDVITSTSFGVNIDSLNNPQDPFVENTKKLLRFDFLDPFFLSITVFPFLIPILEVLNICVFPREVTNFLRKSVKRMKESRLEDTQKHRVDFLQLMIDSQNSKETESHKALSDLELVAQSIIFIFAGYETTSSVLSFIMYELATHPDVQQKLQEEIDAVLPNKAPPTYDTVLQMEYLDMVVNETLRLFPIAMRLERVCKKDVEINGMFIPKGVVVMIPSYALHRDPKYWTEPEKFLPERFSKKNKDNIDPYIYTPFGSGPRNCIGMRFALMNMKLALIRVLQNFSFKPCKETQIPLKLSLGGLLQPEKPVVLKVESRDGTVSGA
assay-protocol: Measurement of cytochrome P450 (CYP3A4) enzyme inhibition activity in human liver microsome (inhibition tests I and II, midazolam substrate)
Assay type: in vitro ADME
measurement-setup: inhibition test II: 5 μM test compound preincubated 30 minutes with human liver microsome and NADPH, then 2 μM midazolam 20 minutes; relative to test I
assay-endpoint: II (%) Remaining Rate II

* C[C@]1(O)CC[C@H](CN[C@@H]2[C@@H]3CC4C[C@H]2C[C@@](CNc2nc(NCc5ccccc5OC(F)F)ncc2C#N)(C4)C3)CC1 (relative stereo) | 84
* C[C@]1(O)CC[C@H](CN[C@@H]2[C@@H]3CC4C[C@H]2C[C@@](CNc2nc(NCc5ccccc5Cl)ncc2C#N)(C4)C3)CC1 (relative stereo) | 85
* COc1ccccc1CNc1ncc(C#N)c(NC[C@]23CC4C[C@H](C2)[C@@H](N2CC(CO)(CO)C2)[C@@H](C4)C3)n1 (relative stereo) | 87
* CSc1ccccc1CNc1ncc(C#N)c(NC[C@]23CC4C[C@H](C2)C(NC[C@H]2CC[C@H](CO)CC2)[C@@H](C4)C3)n1 (some centres unmarked) | 95
* CNC1CCC(N[C@@H]2[C@@H]3CC4C[C@H]2C[C@@](CNc2nc(NCc5ccccc5Cl)ncc2C#N)(C4)C3)CC1 (some centres unmarked) [Example 315] | 86
* N#Cc1cnc(NCc2ccccc2Cl)nc1NC[C@]12CC3C[C@H](C1)[C@@H](N[C@H]1CC[C@@H](NCCO)CC1)[C@@H](C3)C2 (relative stereo) | 85
* COc1ccccc1CNc1ncc(C#N)c(NC[C@]23CC4C[C@H](C2)[C@@H](NCC[C@H](O)CO)[C@@H](C4)C3)n1 (relative stereo) | 82
* N#Cc1cnc(NCc2ccccc2OC(F)(F)F)nc1NC[C@]12CC3C[C@H](C1)[C@H](N[C@H]1CC[C@H](O)CC1)[C@@H](C3)C2 (relative stereo) | 102
* CC1(N)CCC(N[C@@H]2[C@@H]3CC4C[C@H]2C[C@@](CNc2nc(NCc5ccccc5Cl)ncc2C#N)(C4)C3)CC1 (relative stereo) | 84
* CSc1ccccc1CNc1ncc(C#N)c(NC[C@]23CC4C[C@H](C2)[C@@H](NC[C@H]2CC[C@H](CO)CC2)[C@@H](C4)C3)n1 (relative stereo) | 94
* CSc1ccccc1CNc1ncc(C#N)c(NC[C@]23CC4C[C@H](C2)C(NC[C@H]2CC[C@H](O)CC2)[C@@H](C4)C3)n1 (relative stereo) | 91
* COc1ncccc1CNc1ncc(C#N)c(NC[C@]23CC4C[C@H](C2)[C@@H](NC[C@H]2CC[C@H](O)CC2)[C@@H](C4)C3)n1 (relative stereo) | 81
* CNC1CCC(N[C@@H]2[C@@H]3CC4C[C@H]2C[C@@](CNc2nc(NCc5ccccc5Cl)ncc2C#N)(C4)C3)CC1 (relative stereo) [Example 316] | 84
* N#Cc1cnc(NCc2ccccc2Cl)nc1NC[C@]12CC3C[C@H](C1)[C@@H](NCC1CCNCC1)[C@@H](C3)C2 | 92
* N#Cc1cnc(NCc2ccccc2Cl)nc1NC[C@]12CC3C[C@H](C1)[C@@H](NC[C@H]1CC[C@@H](O)CC1)[C@@H](C3)C2 (relative stereo) | 89
* N#Cc1cnc(NCc2ccccc2Cl)nc1NC[C@]12CC3C[C@H](C1)[C@@H](NC1CCC(O)CC1)[C@@H](C3)C2 (some centres unmarked) | 81
* COc1ncccc1CNc1ncc(C#N)c(NC[C@]23CC4C[C@H](C2)C(N[C@H]2CC[C@H](CO)CC2)[C@@H](C4)C3)n1 (relative stereo) | 94
* CC(=O)N1CCC(N[C@H]2CC[C@@H](N[C@@H]3[C@@H]4CC5C[C@H]3C[C@@](CNc3nc(NCc6ccccc6Cl)ncc3C#N)(C5)C4)CC2)CC1 (relative stereo) | 83
* COc1ccccc1CNc1ncc(C#N)c(NC[C@]23CC4C[C@H](C2)[C@@H](N(C)CCCCO)[C@@H](C4)C3)n1 | 84
* CN1CCC(N[C@@H]2[C@@H]3CC4C[C@H]2C[C@@](CNc2nc(NCc5ccccc5Cl)ncc2C#N)(C4)C3)CC1 (relative stereo) | 82
* N#Cc1cnc(NCc2cnccc2Cl)nc1NC[C@]12CC3C[C@H](C1)[C@@H](NC1CCC(O)CC1)[C@@H](C3)C2 (some centres unmarked) | 85
* N#Cc1cnc(NCc2ccccc2Cl)nc1NC[C@]12CC3C[C@H](C1)[C@@H](NC1CCNCC1)[C@@H](C3)C2 | 89
* N#Cc1cnc(NCc2ccccc2Cl)nc1NC[C@]12CC3C[C@H](C1)[C@@H](NCC1CCN(CCF)CC1)[C@@H](C3)C2 | 94
